- ASSAY_METHOD_TEXT: basal S. cerevisiae growth modulation, no modifier, primary screen, OD600, strain BY4716, 24 h, basal condition (AID 1173)
- MEASUREMENT_CONDITIONS: OD600, 24 h, higher = more signal, called active from +8 up or from −8 down
Assign satisfied whenever z-score does not fall below 0.5; assign not satisfied whenever it does.

molecule="CCCCC(CC)C(O)C1C=CC2C(=O)N(c3ccccc3)C(=O)C2N1Nc1ccc([N+](=O)[O-])cc1 (centres undefined)" answer_label="not satisfied"
molecule=CC(C)C[C@@H]1NC(=O)[C@H]2C[C@@H](C(=O)NCCCCCC[N+](C)(C)C)[C@@H](c3cccc(OCCO)c3)N2C1=O answer_label="not satisfied"
molecule=CC(C)(C)OC(=O)CC[C@]1(C(=O)NCCN2CCOCC2)N=C(c2ccc(OCCCO)cc2)O[C@H]1c1ccccc1 answer_label="not satisfied"
molecule=C=CC[C@@]1(C(=O)O)N=C(c2ccc(OCCCO)cc2)O[C@@H]1c1ccccc1 answer_label="not satisfied"
molecule=C=C(/C=C/CNS(=O)(=O)c1ccc(C)cc1)[C@H](O)[C@H]1CCCN1S(=O)(=O)c1ccccc1[N+](=O)[O-] answer_label=satisfied
molecule=CN(C)C(=O)[C@@]1(Cc2ccccc2N=[N+]=[N-])COC(c2ccc(OCCCO)cc2)=N1 answer_label="not satisfied"
molecule=CCOC(=O)[C@@H]1[C@@H]2C(=O)N(CC)C(=O)[C@@H]2C[C@@H]1Sc1ccccc1 answer_label="not satisfied"
molecule="CCCCN1CC=CC23O[C@@H]4C=CCOC(=O)[C@@H]4[C@H]2C(=O)N(CCCO)[C@@H]3C1=O (some centres undefined)" answer_label="not satisfied"
molecule="[N-]=[N+]=NCc1ccccc1C[C@]1(C(=O)NCC(O)CO)N=C(c2ccc(OCCCO)cc2)O[C@H]1c1ccccc1CN=[N+]=[N-] (some centres undefined)" answer_label="not satisfied"
molecule="CC(=O)n1cc(C(O)C2C=CC3C(=O)N(c4ccccc4)C(=O)C3N2Nc2ccccc2)c2ccccc21 (centres undefined)" answer_label="not satisfied"
molecule=COC(=O)[C@@]1(Cc2ccc(F)cc2)[C@H]2c3cc(C(=O)N4CCCC4)n(CCF)c3C[C@H]2CN1C(=O)c1ccccc1 answer_label="not satisfied"
molecule=COC(=O)[C@@]1(Cc2ccccc2)[C@H]2c3cc(C(=O)N4CCCC4)n(Cc4cc(F)cc5c4OCOC5)c3C[C@H]2CN1C(=O)c1ccccc1 answer_label=satisfied
molecule=CN(C)CCCCNC(=O)[C@H]1C[C@H]2C(=O)N[C@@H](CCCCN(C)C)C(=O)N2[C@H]1c1cccc(OCCO)c1 answer_label="not satisfied"
molecule=CC(C)N1C(=O)[C@@]2(c3ccc([N+](=O)[O-])cc3)CC(=O)N(C3CCCCC3)[C@@H]2c2ccc(CO)cc21 answer_label=satisfied
molecule="CN1C2C=C(CCCO)C(C3C(=O)N(C(N)=O)C(=O)C32)C1c1cccs1 (centres undefined)" answer_label=satisfied
molecule="O=C1NC(=O)C2C1C=CC(C(O)c1ccc3c(c1)OCO3)N2Nc1ccccn1 (centres undefined)" answer_label="not satisfied"
molecule=COC(=O)[C@@]1(Cc2ccc(OC)cc2)[C@H]2c3cc(C(=O)N(C)C)n(Cc4nc5ccccc5[nH]4)c3C[C@H]2CN1C(=O)c1ccccc1 answer_label=satisfied
molecule="CN1C(=O)C2C=CC(C(O)Cc3ccccc3)N(N(c3ccccc3)c3ccccc3)C2C1=O (centres undefined)" answer_label="not satisfied"
molecule=CN(C)C(=O)[C@]1(CCC(=O)OC(C)(C)C)N=C(c2ccc(OCCCO)cc2)O[C@@H]1c1ccccc1 answer_label="not satisfied"
molecule=C=C[C@H](COC(C)=O)NS(=O)(=O)c1ccc(Br)cc1 answer_label="not satisfied"
molecule=NCCCCCNC(=O)[C@@H]1C[C@@H]2C(=O)N[C@@H](CCCCN)C(=O)N2[C@@H]1c1cccc(OCCO)c1 answer_label="not satisfied"
molecule=C=C[C@@H](C)[C@H](OC(=O)Nc1ccc(SC)cc1)c1ccc(OCCO)cc1 answer_label="not satisfied"
molecule=COCCCNC(=O)[C@]1(CCC(=O)OC(C)(C)C)N=C(c2ccc(OCCCO)cc2)O[C@@H]1c1ccccc1 answer_label="not satisfied"
molecule=COCCOC(=O)N1C(=O)[C@@]2(c3cc(C#CCC(C(=O)OC)C(=O)OC)ccc31)[C@H](c1ccc(OCCO)cc1)N1[C@H](c3ccccc3)[C@H](c3ccccc3)OC(=O)[C@H]1[C@@H]2C(=O)N1CCN(c2ncccn2)CC1 answer_label=satisfied
molecule=COCCOC(=O)N1C(=O)[C@@]2(c3cc(C#CC4(O)CCCCCC4)ccc31)[C@H](c1ccccc1OCCO)N1[C@H](c3ccccc3)[C@H](c3ccccc3)OC(=O)[C@H]1[C@@H]2C(N)=O answer_label=satisfied
molecule=NC(=O)NCC#Cc1ccc2c(c1)[C@]1(C(=O)N2)[C@H](C(=O)Nc2nc3ccccc3s2)[C@H]2C(=O)O[C@H](c3ccccc3)[C@H](c3ccccc3)N2[C@@H]1c1ccc(O)cc1 answer_label=satisfied
molecule=O=C1O[C@H](c2ccccc2)[C@H](c2ccccc2)N2[C@H]1[C@@H](C(=O)O)[C@]1(C(=O)Nc3ccccc31)[C@H]2c1ccc(O)cc1 answer_label=satisfied
molecule=COc1c(C)cc(-c2cc3c(c(Cc4ccccc4)n2)[Si](C(C)C)(C(C)C)OC3)cc1C answer_label=satisfied
